Listing of entries alongside the reported viability, T/C.
test system: 624824-186-R-J2-PDC multicell spheroids, viability; experiment: Anticancer human tumor 624824-186-R-J2-PDC patient-derived colon adenocarcinoma cell line growth inhibition [PI3K]; conditions: second compound 0.1 µM; first compound 3.16 µM; stronger effect = lower value;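 also: spheroids exposed to agents for 7 days before viability read; 100% = DMSO vehicle treated spheroids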
Hi! Could you send only the number? It should be in %, unit omitted.

q: For CC(C)NCC(C(=O)N1CCN(c2ncnc3c2C(C)CC3O)CC1)c1ccc(Cl)cc1 (stereo unspecified) + CC(Nc1ccc2c(c1)OCCn1cc(N3C(=O)OCC3C(F)F)nc1-2)C(N)=O , write its viability, T/C.
a: 95.1

q: For the compound C#Cc1c(F)ccc2cc(O)cc(-c3ncc4c(N5CC6CCC(C5)N6)nc(OCC56CCCN5CC(F)C6)nc4c3F)c12 (stereo unspecified) + COc1c(OCCCN2CCOCC2)ccc2c3n(c(=NC(=O)c4cnc(N)nc4)nc12)CCN3 , report viability, T/C.
a: 72.8

q: Quickly give me recorded viability, T/C for C#Cc1c(F)ccc2cc(O)cc(-c3ncc4c(N5CC6CCC(C5)N6)nc(OCC56CCCN5CC(F)C6)nc4c3F)c12 (stereo unspecified) + Cc1nc(NC(=O)N2CCCC2C(N)=O)sc1-c1ccnc(C(C)(C)C(F)(F)F)c1
a: 88.6

q: Complete the entry with viability, T/C for C[C@@H](NC(=O)c1ncnc(N)c1Cl)c1ncc(C(=O)Nc2cc(C(F)(F)F)c(Cl)cn2)s1 + CC(Nc1ncnc2nc[nH]c12)c1cc2cccc(Cl)c2c(=O)n1-c1ccccc1
a: 57
